Listed molecules paired with reported inhibition at 1 µM
Species on record: Bos taurus
Assay: Percent inhibition of cartilage degradation at 1 uM in a bovine articular cartilage explant assay
Assay type: functional
Settings: Cartilage tissue
The reply should be a number in %, with the unit left off.

>  <molecule>
COc1ccc(S(=O)(=O)N(Cc2cccnc2)c2c(C)cc(-c3ccccc3)cc2C(=O)NO)cc1

>  <measurement-unit>
%

>  <recorded-result>
70

$$$$
>  <molecule>
COc1ccc(S(=O)(=O)N(Cc2cccnc2)c2c(C)cc(-c3ccc4ccccc4c3)cc2C(=O)NO)cc1

>  <measurement-unit>
%

>  <recorded-result>
83

$$$$
>  <molecule>
COc1ccc(S(=O)(=O)N(Cc2cccnc2)[C@@H](C(=O)NO)C(C)C)cc1 [CGS-27023A]

>  <measurement-unit>
%

>  <recorded-result>
70

$$$$

API: the following record is the query input.
Bench note: what inhibition at 1 µM did "Cc1cccc(C(=O)NO)c1N(C)S(=O)(=O)c1ccc(Oc2ccncc2)cc1" show?
83

###

Record type: pIC50 measurement. Applies to: UniProt:P45452
As a rule, pIC50 stands for the negative log10 of the concentration, concentration in M.

These recorded examples may help you get a feel for the data.
>  <smiles-str>
Cc1cc(Br)cc(C(=O)NO)c1N(C)S(=O)(=O)c1ccc(-c2ccc(OCc3ccsc3)cc2)cc1

>  <pIC50>
6.85

$$$$
>  <smiles-str>
Cc1cc(C)c(N(Cc2ccccc2)S(=O)(=O)c2ccc(Oc3ccccc3)cc2)c(C(=O)NO)c1

>  <pIC50>
8.22

$$$$
>  <smiles-str>
CN(c1ccccc1C(=O)NO)S(=O)(=O)c1ccc(Oc2ccncc2)cc1

>  <pIC50>
7.42

$$$$

What value of pIC50 on UniProt:P45452 does "Cc1cc(Br)cc(C(=O)NO)c1N(C)S(=O)(=O)c1ccc(-c2ccc(OCc3ccccc3)cc2)cc1" have?
6.79

What value of pIC50 on UniProt:P45452 does "COc1ccc(S(=O)(=O)N(Cc2cccnc2)c2c(C(=O)NO)cc(C)cc2-c2ccco2)cc1" have?
9.00

What value of pIC50 on UniProt:P45452 does "COc1ccc(S(=O)(=O)N(Cc2cccnc2)c2c(C)cc(-c3ccccc3)cc2C(=O)NO)cc1" have?
8.40

###

Listed compounds paired with reported inhibition
Biological target: Disintegrin and metalloproteinase domain-containing protein 17 (Homo sapiens)
Sequence (P78536 whole entry, the tested form may be a part): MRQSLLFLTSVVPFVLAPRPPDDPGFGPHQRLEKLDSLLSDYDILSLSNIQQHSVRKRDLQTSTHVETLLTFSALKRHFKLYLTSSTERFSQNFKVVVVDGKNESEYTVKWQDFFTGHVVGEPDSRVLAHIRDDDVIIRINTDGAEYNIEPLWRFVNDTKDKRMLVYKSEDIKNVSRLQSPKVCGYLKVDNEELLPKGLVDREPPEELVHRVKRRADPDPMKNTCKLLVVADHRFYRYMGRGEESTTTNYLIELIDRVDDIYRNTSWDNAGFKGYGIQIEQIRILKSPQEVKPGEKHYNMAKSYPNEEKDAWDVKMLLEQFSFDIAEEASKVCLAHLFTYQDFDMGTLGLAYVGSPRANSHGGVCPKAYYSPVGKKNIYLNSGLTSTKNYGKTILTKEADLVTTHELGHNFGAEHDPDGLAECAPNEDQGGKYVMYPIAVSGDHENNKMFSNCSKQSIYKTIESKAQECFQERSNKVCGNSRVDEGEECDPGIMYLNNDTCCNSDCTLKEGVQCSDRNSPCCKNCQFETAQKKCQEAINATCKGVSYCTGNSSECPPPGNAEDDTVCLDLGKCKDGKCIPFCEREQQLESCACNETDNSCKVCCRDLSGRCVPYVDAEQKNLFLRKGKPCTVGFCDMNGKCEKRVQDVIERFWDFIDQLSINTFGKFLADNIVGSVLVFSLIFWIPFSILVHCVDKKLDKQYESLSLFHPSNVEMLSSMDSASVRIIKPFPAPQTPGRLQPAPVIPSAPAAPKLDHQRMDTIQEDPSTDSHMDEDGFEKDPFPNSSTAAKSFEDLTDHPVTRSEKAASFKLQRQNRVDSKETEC
Test: Inhibition of TNF-alpha converting enzyme (TACE) at 1 uM
The reply should be a number in %, with the unit left off.

These recorded examples may help you get a feel for the data.
>  <smiles-str>
Cc1cc(C)c(N(Cc2ccccc2)S(=O)(=O)c2ccc(Oc3ccccc3)cc2)c(C(=O)NO)c1

>  <recorded-result>
37

$$$$
>  <smiles-str>
COc1ccc(-c2ccc(S(=O)(=O)N(Cc3cccnc3)c3c(C)cccc3C(=O)NO)cc2)cc1

>  <recorded-result>
4

$$$$

API: the following record is the query input.
Bench note: what inhibition did "Cc1cccc(C(=O)NO)c1N(C)S(=O)(=O)c1ccc(Oc2ccncc2)cc1" show?
32
